The origin of these recorded values is patent US20050227989A1.

target: UniProt Q9H2S1; assay: 86Rb+ efflux assay for compound activity towards hSK channels; format: cell-based; conditions: 86Rb+ efflux stimulated with calcium ionophore; drug 0.01 to 30 μM in EBSS; read-out: hSK2 Inhibitory Activity
pIC50: −log10 of the molar value.
EXPERIMENTAL_ENDPOINT: pIC50

STRUCTURE: c1ccc(-c2csc(Nc3nccs3)n2)nc1
pIC50: 4.52 to 6.00
//
STRUCTURE: Cc1ccnc(Nc2nc(-c3nccs3)cs2)c1
pIC50: 6.00 to 7.00
//
STRUCTURE: C=C(C)c1ccc(Nc2nc(-c3nccs3)cs2)nc1
pIC50: 4.52 to 6.00
//
STRUCTURE: c1ccc(Nc2nc(-c3cccs3)cs2)nc1
pIC50: 4.52 to 6.00

# ---- query molecule ----
pIC50 reading for `COc1ccc(Nc2nc(-c3nccs3)cs2)nc1` : 6.00 to 7.00
